- experimental_protocol: compound effects on lung adenocarcinoma cell viability – A549, calcein-AM fluorescence, 48 h, basal, profiling panel (AID 1162); also: test concentration not given here
- condition_context: higher = more signal
recorded_metric: z-score
Answer as a number with no unit attached.

Field: example entries. Status: answers known.
* O=C(NCCN1CCOCC1)[C@@H]1c2ccccc2C(=O)N(Cc2ccccc2C(F)(F)F)[C@H]1c1ccc(CO)cc1 | 1.9
* CCOC(=O)C1=CC[C@@H](c2ccc(OC)cc2)N(S(=O)(=O)c2ccc(C)cc2)[C@H]1c1ccc(C)cc1 | -0.35
* C=C(COC)C(=O)CC[C@@H](OC(=O)c1ccccc1-c1ccccc1C(=O)O)c1ccc(OCCO)cc1 | -0.25

# z-score of O=C(NC1CC1)[C@@H]1c2ccccc2C(=O)N(Cc2cc(C(F)(F)F)cc(C(F)(F)F)c2)[C@H]1c1ccc(CO)cc1 = 1.68

---

- experimental_protocol: probe aNog binding to arrayed compounds – biochemical, biotinylated probe, 635/667 nm fluorescence, primary screen (AID 1115);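 also: probe is biotinylated aNog protein used at 0.15 µg/mL for 1 h at 4 C; z-score combines 667 nm fluorescence of each spot with its signal to noise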
- condition_context: small-molecule microarray, higher = more signal
recorded_metric: composite z-score
Output: the number by itself.

- COCC(=C=CC[C@H](O)c1ccccc1OCCO)C[C@H](O)COCc1ccccc1: 0.589
- O=C1[C@H]2C=C(I)[C@H](C[C@@H]2c2ccccc2)[C@@]12CO2: -0.172
- CN1C(=O)C2C=CC(C(O)c3ccc(-c4ccccc4)s3)N(NC(=O)OC(C)(C)C)C2C1=O (stereo not given): 1.38

composite z-score in this record for CCCCC(O)C1C=CC2C(=O)N(c3ccccc3)C(=O)C2N1Nc1ccc([N+](=O)[O-])cc1 (stereo not given) : -0.343

Given item COCCOC(=O)N1C(=O)[C@@]2(c3ccccc31)[C@H](C(=O)N1CCN(c3ncccn3)CC1)[C@H]1C(=O)O[C@H](c3ccccc3)[C@H](c3ccccc3)N1[C@@H]2c1ccccc1OCCO , the value recorded as its composite z-score is 0.26

composite z-score recorded for this molecule, COCCOC(=O)N1C(=O)[C@@]2(c3cc(C#CCCO)ccc31)[C@H](c1ccccc1OCCO)N1[C@H](c3ccccc3)[C@H](c3ccccc3)OC(=O)[C@H]1[C@@H]2C(N)=O , is -0.467

Consider C=CCOC(=O)[C@@H]1[C@H]2C(=O)O[C@H](c3ccccc3)[C@H](c3ccccc3)N2[C@H](c2ccc(OCCOC(=O)[C@H]3C[C@H]4C(=O)N[C@@H](CCCCN(C)C)C(=O)N4[C@H]3c3ccc(O)cc3)cc2)[C@@]12C(=O)Nc1ccc(I)cc12 . Its measured composite z-score is 0.219

---

- experimental_system: Dickkopf-related protein 1 (Homo sapiens)
- experimental_protocol: small molecules binding DKK1 protein – biochemical, small-molecule microarray, 635 nm fluorescence scan, primary screen (AID 1106);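 also: score merges emission near 667 nm with signal to noise over three replicate slides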
- condition_context: higher = more signal
// label = TRUE if composite z-score is not less than -0.07, otherwise FALSE

- C=CCNC(=O)[C@H]1[C@@H]2C(=O)O[C@@H](c3ccccc3)[C@@H](c3ccccc3)N2[C@@H](c2ccccc2OCCO)[C@]12C(=O)N(C(=O)OCCOC)c1ccc(C#Cc3ccc(OC)cc3)cc12: FALSE
- COCCOC(=O)N1C(=O)[C@@]2(c3cc(C#Cc4ccc(OC)cc4)ccc31)[C@H](c1ccc(OCCO)cc1)N1[C@H](c3ccccc3)[C@H](c3ccccc3)OC(=O)[C@H]1[C@@H]2C(=O)NC[C@H](O)c1ccccc1: TRUE
- O=C(NCC(O)CO)[C@@]1(CCS(=O)(=O)c2ccccc2)N=C(c2ccc(OCCCO)cc2)O[C@H]1c1ccccc1 (stereo partly specified): FALSE
- C[C@@H]1ON(c2ccc(I)cc2)[C@H](c2cccc(NC(=O)OCC3c4ccccc4-c4ccccc43)c2)[C@H]1C(=O)N1C(=O)OC[C@H]1Cc1ccccc1: TRUE

(Q) For this compound, is measured composite z-score -0.07 or higher? CCCCC(=C=CC[C@H](O)c1ccc(CO)o1)CCO
(A) FALSE

(Q) Does COc1ccc([Si](C)(C)[C@H]2[C@H](CCO)O[C@@]3(C(=O)N(Cc4ccc(NC(=O)[C@H](C)O)cc4)c4ccccc43)[C@@H]2C)cc1 have a reported composite z-score of at least -0.07?
(A) TRUE

(Q) Given CC(C)NC(=O)[C@@H]1c2ccccc2C(=O)N(Cc2ccc(OC(F)(F)F)cc2)[C@H]1c1ccc(CO)cc1 , state whether its composite z-score is at least -0.07.
(A) TRUE

(Q) Given the entry CCCCN1CC=CC23O[C@@H]4/C=C\CCCOC(=O)C4[C@H]2C(=O)N(C(CO)C(C)C)[C@@H]3C1=O (stereo partly specified) , answer whether its composite z-score meets or surpasses -0.07.
(A) TRUE

(Q) Hi, just wondering whether COc1cc(C(O)C2C=CC3C(=O)N(c4ccccc4)C(=O)C3N2Nc2ccccc2F)cc(OC)c1OC (stereo unspecified) shows composite z-score of -0.07 or higher.
(A) TRUE

(Q) Hi, just wondering whether CCOC(=O)C[C@H]1[C@H](OC(=O)c2cc3ccccc3oc2=O)[C@@H](NC(=O)CC(C)C)c2cc(OCCCO)ccc2N1C(=O)Cc1ccc(OC)cc1 shows composite z-score of -0.07 or higher.
(A) TRUE

(Q) Check this compound for composite z-score at or above -0.07: COC(=O)[C@H](Cc1ccccc1)N1CC2=CCCC=C[C@@H]2[C@H]1[C@H](O)Cc1ccccc1
(A) TRUE

(Q) Does the compound C=CCOC(=O)[C@@H]1[C@H]2C(=O)O[C@H](c3ccccc3)[C@H](c3ccccc3)N2[C@H](c2ccc(OCCOC(=O)[C@H]3C[C@H]4C(=O)NCC(=O)N4[C@H]3c3cccc(OCCO)c3)cc2)[C@@]12C(=O)Nc1ccc(I)cc12 have recorded composite z-score that is -0.07 or more?
(A) TRUE

---

- experimental_protocol: compound effects on lung adenocarcinoma cell viability – A549, calcein-AM fluorescence, 48 h, basal, profiling panel (AID 1162); also: test concentration not given here
- condition_context: higher = more signal
Where z-score equals or exceeds -0.3, the correct label is Yes; where it does not, the label is No.

Field: example entries. Status: answers known.
- C=C1C(=O)C=C2CN(C(=O)c3ccccc3)[C@@](Cc3ccc(OC)cc3)(C(=O)OC)[C@@H]12: No
- CC(C)(C)OC(=O)CC[C@@]1(C(=O)NCCN2CCOCC2)N=C(c2ccc(OCCCO)cc2)O[C@@H]1c1ccccc1CN=[N+]=[N-]: No
- COc1ccc([Si](C)(C)[C@@H]2[C@@H](CC(=O)N(CCO)Cc3ccccc3)O[C@]3(C(=O)N(Cc4ccc(N5C(=O)c6cccc7cccc5c67)cc4)c4ccccc43)[C@H]2C)cc1: No
- CO[C@H]1O[C@H](CO)[C@@H](OC(=O)Nc2ccccc2-c2ccccc2)[C@H](OC(=O)Nc2ccccc2)[C@H]1OC(=O)Nc1ccccc1: No
- COCCOC(=O)N1C(=O)[C@@]2(c3cc(C#CCC(C(=O)OC)C(=O)OC)ccc31)[C@H](c1ccc(O)cc1)N1[C@H](c3ccccc3)[C@H](c3ccccc3)OC(=O)[C@H]1[C@@H]2C(=O)Nc1nc2ccccc2s1: No
- COC(=O)C1(Cc2ccccc2)C=C2C(=C(C)C(=O)C2C)CN1 (stereo not given): No
- CC1CC/C=C\[C@H]2OC34C=CCN(c5ccc(Cl)cc5)C(=O)[C@H]3N(CCCCCCO)C(=O)[C@]4(C)C2C(=O)O1 (stereo not given in full): Yes
- CC(C)C(O)C1C=CC2C(=O)NC(=O)C2N1Nc1ccccn1 (stereo not given): Yes
- COCCOC(=O)N1C(=O)[C@@]2(c3cc(C#CCCO)ccc31)[C@H](c1ccccc1OCCO)N1[C@H](c3ccccc3)[C@H](c3ccccc3)OC(=O)[C@H]1[C@@H]2C(N)=O: Yes
- C=CCNC(=O)[C@H]1[C@@H]2C(=O)O[C@@H](c3ccccc3)[C@@H](c3ccccc3)N2[C@@H](c2ccc(OCCO)cc2)[C@]12C(=O)Nc1ccc(C#CC3(O)CCCCCC3)cc12: Yes

(Q) Does the molecule CC(C)c1nc2cc(Br)ccc2c(=O)o1 have recorded z-score that is -0.3 or more?
(A) No

(Q) Please check the record COc1cc(CO)cc(I)c1O[C@H]1C=C(C(=O)NCCO)C[C@@H]2O[C@H]12 and state if its z-score is at or above -0.3.
(A) No

(Q) z-score >= -0.3 for CCOC(=O)C1=CCC(c2cc3ccccc3[nH]2)N(CCN2CC(C(=O)OCC)=CCC2c2cc3ccccc3[nH]2)C1 (stereo not given) ?
(A) No

(Q) Does z-score meet or surpass -0.3 for O=C1C[C@@](C(=O)O)(c2ccc([N+](=O)[O-])cc2)[C@@H](c2ccc(CO)cc2)N1C1CCCCC1 ?
(A) Yes

(Q) Would you say COCCCNC(=O)[C@@H]1c2ccccc2C(=O)N(Cc2ccc(OC(F)(F)F)cc2)[C@H]1c1ccc(CO)cc1 shows z-score at minimum -0.3?
(A) Yes
